Data provenance is ChEMBL document CHEMBL1151946.

- target: Alpha-1D adrenergic receptor (Homo sapiens)
- Sequence (P25100 whole entry): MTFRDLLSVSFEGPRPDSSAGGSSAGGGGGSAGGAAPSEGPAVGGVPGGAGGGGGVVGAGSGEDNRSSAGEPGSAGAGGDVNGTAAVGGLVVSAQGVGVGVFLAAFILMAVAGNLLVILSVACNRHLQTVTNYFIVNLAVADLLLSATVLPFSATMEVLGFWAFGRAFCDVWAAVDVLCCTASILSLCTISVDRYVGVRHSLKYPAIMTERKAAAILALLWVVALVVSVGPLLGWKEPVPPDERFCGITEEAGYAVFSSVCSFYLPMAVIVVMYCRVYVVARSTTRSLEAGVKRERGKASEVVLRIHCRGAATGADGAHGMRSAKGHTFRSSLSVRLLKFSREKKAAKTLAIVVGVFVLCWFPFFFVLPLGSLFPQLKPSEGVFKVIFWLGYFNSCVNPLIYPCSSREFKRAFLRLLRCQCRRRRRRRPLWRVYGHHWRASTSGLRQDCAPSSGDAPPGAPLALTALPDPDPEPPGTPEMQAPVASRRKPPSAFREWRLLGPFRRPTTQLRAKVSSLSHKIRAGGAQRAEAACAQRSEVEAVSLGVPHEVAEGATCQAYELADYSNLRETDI
- procedure-summary: Displacement of [3H]prazosin from human Alpha-1D adrenoceptor expressed in CHO cells
- Assay type: cell-based
experimental-endpoint: Ki (nM)

{"molecule": "COc1cc2nc(N(C)CCCCCCN(C)C(=O)C3COc4ccccc4O3)nc(N)c2cc1OC (stereo unspecified)", "experimental-value": 1.58}

###

Quick reference for Ki among some compounds
Target chain: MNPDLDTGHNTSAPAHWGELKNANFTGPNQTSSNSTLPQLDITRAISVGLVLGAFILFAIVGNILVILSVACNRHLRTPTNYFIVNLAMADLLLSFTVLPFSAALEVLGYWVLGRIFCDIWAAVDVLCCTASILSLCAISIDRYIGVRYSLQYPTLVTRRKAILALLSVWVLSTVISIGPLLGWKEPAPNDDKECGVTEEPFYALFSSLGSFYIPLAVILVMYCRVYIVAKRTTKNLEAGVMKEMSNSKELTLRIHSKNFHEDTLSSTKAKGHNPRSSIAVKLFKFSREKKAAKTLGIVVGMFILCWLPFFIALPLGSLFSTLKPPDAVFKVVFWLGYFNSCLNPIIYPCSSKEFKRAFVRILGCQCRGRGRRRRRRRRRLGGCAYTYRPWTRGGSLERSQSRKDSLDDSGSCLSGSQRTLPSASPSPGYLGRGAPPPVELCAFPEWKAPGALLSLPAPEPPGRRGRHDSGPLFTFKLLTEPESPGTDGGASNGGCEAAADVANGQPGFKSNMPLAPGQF

{"compound": "COc1cc2nc(N3CCN(C(=O)c4ccco4)[C@H]4CCCC[C@H]43)nc(N)c2cc1OC [CYCLAZOSIN]", "result-unit": "nM", "Ki": 0.324}
{"compound": "COc1cc2nc(N3CCN(C(=O)C4COc5ccccc5O4)[C@H]4CCCC[C@H]43)nc(N)c2cc1OC (relative stereo) [CYCLODOXAZOSIN]", "result-unit": "nM", "Ki": 0.417}
{"compound": "COc1cc2nc(N3CCN(C(=O)C4COc5ccccc5O4)[C@@H]4CCCC[C@@H]43)nc(N)c2cc1OC (single isomer, unassigned)", "result-unit": "nM", "Ki": 1.41}
